experiment: blockers of yeast NLRP3/ASC/caspase-1 reporter – luminescence, uHTS, primary screen (AID 2825); settings: Yeast reconstituted NLRP3/ASC/caspase-1, beta-gal luminescence, 24 h; at 10 µM; active compounds read high;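 also: plate controls were induced DMSO wells for no effect and uninduced yeast grown without galactose for full effect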
Screen size: about 330,000 compounds; about 1,300 (0.39%) were called active. Shown is part of a subset that was picked to be rich in actives.
// reported inhibition for each item listed

1. COc1cccc(/C=N/Nc2cc(C)nc(-c3ccccc3O)n2)c1O	54.1% (active)
2. O=C1CC(c2ccccc2)CC(O)=C1C=NCCN1CCOCC1 (configuration not stated)	29.8% (inactive)
3. CCNC(=O)c1cccc(NC(=O)C2CC(=O)N(CCc3ccccc3)C2)c1 (configuration not stated)	0.384% (inactive)
4. Cc1ccccc1C(=O)NC(=S)NC1CC1	-9.47% (inactive)
5. CCn1nc(C)c(NC(=O)/C=C/c2ccc(OC)c(COc3ccc(Br)cc3)c2)c1C	7.05% (inactive)

stdin: GET /values?readout=inhibition&item= Cc1cccc(NC(=O)c2ccc([N+](=O)[O-])o2)c1
stdout: -4.88% (inactive)

stdin: GET /values?readout=inhibition&item= Cc1nc2ccccc2nc1N/N=C/c1ccc(O)cc1O
stdout: 2.73% (inactive)

---

assay: blockers of yeast NLRP3/ASC/caspase-1 reporter – luminescence, uHTS, primary screen (AID 2825); conditions: Yeast reconstituted NLRP3/ASC/caspase-1, beta-gal luminescence, 24 h; at 10 µM
In all, about 330,000 compounds went through this assay and about 1,300 (0.39%) were called active.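 Rule for the calls: active = inhibition of 50% or more; inactive = inhibition below 50%.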 This excerpt belongs to a sample that is enriched for actives.
Log the outcome using a class from active, inactive

Answered examples (3):
1) CCc1cc(C(=O)Nc2nnc(C3CC3)s2)sc1C	active
2) O=C(COc1coc(CN2CCN(c3ccccc3)CC2)cc1=O)Nc1ccccc1F	inactive
3) COc1ccc(S(=O)(=O)NCc2cccnc2)cc1NC(=O)c1ccc(C)cc1	inactive

stdin: Entry Cc1snc(SCc2c(F)cccc2Cl)c1C#N : call = ?
stdout: inactive

stdin: Entry COc1cc(NC(=O)c2cc([N+](=O)[O-])ccc2Br)ccc1NC(=O)c1ccco1 : call = ?
stdout: inactive

stdin: Entry Cc1nn(Cc2ccccc2)c(C)c1C(=O)N1CCN(CC(=O)Nc2ccccc2Cl)CC1 : call = ?
stdout: inactive

stdin: Entry O=C1C=CN2CCCC2CC1 (stereo not drawn) : call = ?
stdout: inactive

stdin: Entry C=CCn1c(SCC(N)=O)nnc1-c1cc2c(s1)CCC(CC)C2 (stereo not drawn) : call = ?
stdout: inactive

stdin: Entry O=C(Nc1ccccc1Cl)/C(Cl)=C(\Cl)S(=O)c1ccccc1 (stereo not drawn) : call = ?
stdout: active

stdin: Entry O=C(CSc1nnc(-c2ccccc2O)o1)NC1CCCCC1 : call = ?
stdout: inactive

stdin: Entry CCc1noc(C)c1C(=O)Nc1nc2ccc(OC)cc2s1 : call = ?
stdout: active

stdin: Entry O=C(CSc1nnc2c(n1)[nH]c1ccccc12)NC1CCCCC1 : call = ?
stdout: inactive

stdin: Entry Cn1nccc1/C=N\NC(=O)c1ccc(Cl)cc1 : call = ?
stdout: inactive

stdin: Entry CC(C)(C)NC(=O)CN(C(=O)c1ccc(Cl)nc1)c1cccc2ccccc12 : call = ?
stdout: inactive

stdin: Entry CN(C)S(=O)(=O)Oc1ccccc1C(=O)Nc1ccccc1Cl : call = ?
stdout: inactive

stdin: Entry N#C/C=C(/c1ccc(F)cc1)N1CCOCC1 : call = ?
stdout: inactive

stdin: Entry Cc1onc(-c2ccccc2Cl)c1C(=O)OCc1nnc(-c2ccccc2)o1 : call = ?
stdout: inactive

stdin: Entry COc1ccc(-c2n[nH]c3c2CN(C(=O)c2ccc(F)cc2)CC3)cc1 : call = ?
stdout: inactive

stdin: Entry Cc1noc(C)c1CSCC(=O)Nc1nc2ccc(Oc3ccccc3)cc2s1 : call = ?
stdout: inactive

stdin: Entry Cc1cc(C)c(C#N)c(SCc2ccc3c(c2)OCO3)n1 : call = ?
stdout: inactive

stdin: Entry COc1ccccc1C(=O)Nc1ccc(NC(=O)c2ccco2)c(C)c1 : call = ?
stdout: active

stdin: Entry Cc1cc(NC(=O)c2ccc(F)cc2)ccc1NC(=O)c1ccco1 : call = ?
stdout: inactive

stdin: Entry O=C(/C=C/c1ccco1)Nc1ccc(Oc2ccccc2)cc1 : call = ?
stdout: inactive

---

experiment: blockers of yeast NLRP3/ASC/caspase-1 reporter – luminescence, uHTS, primary screen (AID 2825); conditions: Yeast reconstituted NLRP3/ASC/caspase-1, beta-gal luminescence, 24 h; at 10 µM; active compounds read high;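 also: plate controls were induced DMSO wells for no effect and uninduced yeast grown without galactose for full effect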
The campaign covered roughly 330,000 compounds. About 1,300 (0.39%) were called active. Shown is part of a subset that was picked to be rich in actives.
ENDPOINT NAME: inhibition (%)
Output spec: scalar in %, unitless text.

stdin: GET /values?readout=inhibition&item= Cc1cc(NC(=O)CN2C(=O)NC(C)(CCc3ccccc3)C2=O)no1 (configuration not stated)
stdout: -3.27

stdin: GET /values?readout=inhibition&item= Cc1ccc2[nH]c3c(=O)n(CC(=O)NCCc4ccc(Cl)cc4)ncc3c2c1
stdout: 1.78

---

// reported inhibition for each item listed
test: blockers of yeast NLRP3/ASC/caspase-1 reporter – luminescence, uHTS, primary screen (AID 2825); details: Yeast reconstituted NLRP3/ASC/caspase-1, beta-gal luminescence, 24 h; at 10 µM; active compounds read high;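 also: plate controls were induced DMSO wells for no effect and uninduced yeast grown without galactose for full effect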
Among all 330,000 compounds or so, about 1,300 (0.39%) were called active. The list comes from a sample in which actives are over-represented; it also holds close analogues and randomly drawn compounds.
Output spec: scalar in %, unitless text.

stdin: GET /values?readout=inhibition&item= CSc1ccc(CN(C)CC(=O)NCc2ccc(F)cc2)cc1
stdout: 30.5

stdin: GET /values?readout=inhibition&item= CN(C(=O)c1ccccn1)c1nnc(-c2ccccn2)s1
stdout: 9.46

stdin: GET /values?readout=inhibition&item= CS(=O)(=O)N(Cc1nc2sc3c(c2c(=O)[nH]1)CCCC3)C1CCCCC1
stdout: 19.1

stdin: GET /values?readout=inhibition&item= Cc1nc2nc(CSc3nc4ccccc4s3)cc(=O)n2[nH]1
stdout: 1.14

stdin: GET /values?readout=inhibition&item= COc1ccc(NC(=O)COC(=O)c2ccncc2)c(OC)c1
stdout: 18.3

stdin: GET /values?readout=inhibition&item= CCOC(=O)c1c(C)[nH]c(C(=O)COc2ccc3c(c2)OCO3)c1C
stdout: 79.9

stdin: GET /values?readout=inhibition&item= CN(C)c1ccnc2sc(C(=O)c3ccccc3)c(N)c12
stdout: 64.4

stdin: GET /values?readout=inhibition&item= O=C(c1cccc(S(=O)(=O)N2CCCC2)c1)N(Cc1ccco1)C1CCS(=O)(=O)C1 (stereo not given)
stdout: 19.1

stdin: GET /values?readout=inhibition&item= CC(=O)[C@@]12O[C@@H]1C[C@H]1[C@@H]3CC[C@H]4C[C@@H](O)CC[C@]4(C)[C@H]3CC[C@@]12C
stdout: 58.4

stdin: GET /values?readout=inhibition&item= COc1cc(OC)cc(C(=O)Nc2ccc(-c3nc4ccccc4o3)c(O)c2)c1
stdout: 10.3

stdin: GET /values?readout=inhibition&item= O=C(Nc1cccc(-c2nc3ncccc3o2)c1)c1ccco1
stdout: 18.2

stdin: GET /values?readout=inhibition&item= CCCSc1nc2sc3c(c2c(=O)n1-c1ccc(OC)cc1)CCN(C)C3
stdout: 18.1

stdin: GET /values?readout=inhibition&item= COc1cc(OC)cc(-c2cc3nc(C4CCN(C(=O)OC(C)(C)C)CC4)cc(=O)n3[nH]2)c1
stdout: 18.1

stdin: GET /values?readout=inhibition&item= CSc1ncnc2sc(C)c(C)c12
stdout: 11.2

stdin: GET /values?readout=inhibition&item= CN1CCN(c2ccc(S(=O)(=O)N3CCOCC3)cc2NC(=O)CCc2ccccc2)CC1
stdout: 12.1

---

// reported inhibition for each item listed
test: blockers of yeast NLRP3/ASC/caspase-1 reporter – luminescence, uHTS, primary screen (AID 2825); settings: Yeast reconstituted NLRP3/ASC/caspase-1, beta-gal luminescence, 24 h; at 10 µM; active compounds read high;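 also: plate controls were induced DMSO wells for no effect and uninduced yeast grown without galactose for full effect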
The campaign covered roughly 330,000 compounds. About 1,300 (0.39%) were called active. The sample as a whole holds a higher share of actives than the screen did.
Output spec: scalar in %, unitless text.

Illustrative cases are given below, each with its answer.
1. CC(=O)c1c(C)[nH]c(C(=O)COc2ccc3c(C)cc(=O)oc3c2)c1C	17.5
2. CCSc1nc2sc3c(c2c(=O)n1-c1ccc(C)cc1)CCN(C)C3	58.9
3. O=C(c1ccc(S(=O)(=O)N2CCCC2)cc1)N1CCN(c2ccccc2F)CC1	11.6
4. CCN(CC)c1ccc(/C=N/Nc2nc(C)cc(C)n2)c(O)c1	58.1
5. Cc1sc2ncnc(Sc3nc4ccccc4s3)c2c1C	6.48

stdin: GET /values?readout=inhibition&item= Cc1cc(C)c(/C=C2\C(=O)Nc3ccccc32)[nH]1
stdout: 55.4

stdin: GET /values?readout=inhibition&item= COc1cc(NC(=O)CN2C(=O)NC(C)(c3ccc(OC(F)F)cc3)C2=O)cc(OC)c1OC (stereo not given)
stdout: 11.2

stdin: GET /values?readout=inhibition&item= COc1cccc(C(=O)Oc2cc(C)[nH]c(=O)c2[N+](=O)[O-])c1
stdout: 16

stdin: GET /values?readout=inhibition&item= CN(C)/C=C1/Nc2ccccc2C1=O
stdout: 12

stdin: GET /values?readout=inhibition&item= CC(NCc1nc2ccccc2n1C)C12CC3CC(CC(C3)C1)C2 (stereo not given)
stdout: 30

stdin: GET /values?readout=inhibition&item= O=C1Nc2ccccc2/C1=C/c1ccnc2ccccc12
stdout: 17.6

stdin: GET /values?readout=inhibition&item= CCN(CC)c1ccc(/C=N/NC(=O)c2cnccn2)c(O)c1
stdout: 27.9

stdin: GET /values?readout=inhibition&item= O=C1CSC(=S)N1c1ccc(O)cc1
stdout: 81.7

stdin: GET /values?readout=inhibition&item= O=[N+]([O-])c1c(NCCO)cc(Sc2nc3ccccc3s2)c2nonc12
stdout: 55.2

stdin: GET /values?readout=inhibition&item= COCCNC(=O)CCCn1c(=O)c2ccccc2n(Cc2cccc([N+](=O)[O-])c2)c1=O
stdout: -0.805
